The measured values listed here are drawn from PubChem BioAssay.

The entries below come with measured double positive events values attached.
method.summary: inhibitors of CD8+ T cell-vesicle binding, pilot screen, LFA-1/ICAM-1 modulator project, MLPCN validation set, flow cytometry (AID 2523)
settings: 2C mouse CD8+ T cells, at 7 µM, stronger effect = lower value; measured here: CD8+/vesicle+ event percentage
observable: double positive events (%)

{"compound": "CNC[C@H](O)c1cccc(O)c1", "result.unit": "%", "test.result": 61.2}
{"compound": "CC(=O)/C=C/c1ccc(C)o1", "result.unit": "%", "test.result": 62.2}
{"compound": "OC[C@H]1O[C@@H](n2cnc3c(Nc4ccccc4)ncnc32)[C@H](O)[C@@H]1O", "result.unit": "%", "test.result": 62.8}
{"compound": "CCc1cccc(OC2OC(CO)C(O)C(O)C2NC(C)=O)c1 (configuration not stated)", "result.unit": "%", "test.result": 69.6}
{"compound": "COc1ccc(CN(CCN(C)C)c2ccccn2)cc1", "result.unit": "%", "test.result": 60.3}
{"compound": "Cc1cc(-c2ccccc2)nnc1NCCN1CCOCC1", "result.unit": "%", "test.result": 67.8}
{"compound": "CCOC(=O)c1cc2cc3ccccc3cc2[nH]1", "result.unit": "%", "test.result": 70.4}
